Please respond with reported pKi for every item in the list.
Target: AChE from electrophorus electricus (EeAChE) (Electrophorus electricus, UniProt O42275)
Construct: Acetylcholinesterase (AChE) (EC 3.1.1.7, type VI-S from Electric Eel); purchased Sigma-Aldrich (Steinheim, Germany) type VI-S; host or cells: electric eel (natural source)
Sequence (O42275 24-633): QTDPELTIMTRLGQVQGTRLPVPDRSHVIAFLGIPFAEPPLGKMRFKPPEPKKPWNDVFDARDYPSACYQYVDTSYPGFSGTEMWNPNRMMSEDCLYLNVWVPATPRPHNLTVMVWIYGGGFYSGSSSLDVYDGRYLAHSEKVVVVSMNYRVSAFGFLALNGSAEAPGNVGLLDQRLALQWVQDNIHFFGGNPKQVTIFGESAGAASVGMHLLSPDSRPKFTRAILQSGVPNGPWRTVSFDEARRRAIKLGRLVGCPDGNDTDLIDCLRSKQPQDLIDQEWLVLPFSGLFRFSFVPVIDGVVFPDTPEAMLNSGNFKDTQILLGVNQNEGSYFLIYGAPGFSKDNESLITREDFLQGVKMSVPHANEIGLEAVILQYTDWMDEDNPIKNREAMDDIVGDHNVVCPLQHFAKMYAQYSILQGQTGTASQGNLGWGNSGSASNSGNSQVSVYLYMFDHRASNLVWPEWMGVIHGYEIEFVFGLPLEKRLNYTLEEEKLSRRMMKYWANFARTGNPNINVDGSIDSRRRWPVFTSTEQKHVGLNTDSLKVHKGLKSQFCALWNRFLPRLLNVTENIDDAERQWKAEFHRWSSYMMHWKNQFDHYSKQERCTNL
Experiment: biochemical
Details: mean ± SEM of three experiments; Ki calculated from IC50; substrate ATCI; read-out: EeAChE Ki ± SEM
Experimental: Acetylcholinesterase (AChE) (EC 3.1.1.7, type VI-S from Electric Eel), butyrylcholinesterase (BChE) (EC 3.1.1.8, from horse serum). AChE and BChE were also isolated from rabbit brain and serum, respectively. The inhibitory activities of coumarin derivatives were measured quantitatively by Ellman's method and performed with some modifications as in Ingkaninan et al. method by using 96-microliter well plate. Series of newly synthesized coumarin derivatives were tested as AChE and BChE inhibitors. […]
One number for each entry, as −log10 of the molar value.

Recorded pKi, per entry:
>  <compound>
COc1cccc(-n2c(-c3cc4ccccc4oc3=O)n[nH]c2=S)c1 [Compound 3g]

>  <assayed-target>
AChE from electrophorus electricus (EeAChE) (Electrophorus electricus, UniProt O42275)

>  <pKi>
6.01

$$$$
>  <compound>
Cc1cccc(Nc2nnc(-c3cc4ccccc4oc3=O)s2)c1 [Compound 4d]

>  <assayed-target>
AChE from electrophorus electricus (EeAChE) (Electrophorus electricus, UniProt O42275)

>  <pKi>
4.55

$$$$
>  <compound>
O=c1oc2ccccc2cc1-c1n[nH]c(=S)n1-c1cccc(Cl)c1 [Compound 3b]

>  <assayed-target>
AChE from electrophorus electricus (EeAChE) (Electrophorus electricus, UniProt O42275)

>  <pKi>
6.49

$$$$
>  <compound>
O=c1oc2ccccc2cc1-c1n[nH]c(=S)n1-c1ccc(Cl)cc1 [Compound 3c]

>  <assayed-target>
AChE from electrophorus electricus (EeAChE) (Electrophorus electricus, UniProt O42275)

>  <pKi>
6.35

$$$$

Jot down pKi (AChE from electrophorus electricus (EeAChE) (Electrophorus electricus, UniProt O42275)) of O=c1oc2ccccc2cc1-c1nnc(Nc2cccc(Cl)c2)s1 [Compound 4b] .
6.55

----------
biological target: BChE from rabbit serum (rBChE) (Oryctolagus cuniculus, UniProt P21927); construct: BChE was obtained from rabbit blood serum by applying the techniques of centrifugation; from tissue; host or cells: rabbit blood serum; assay: biochemical; conditions: rabbit serum BChE; mean ± SEM of three experiments; Ki calculated from IC50; substrate BTCCl; read-out: rBChE Ki ± SEM
Sequence (P21927 9-581): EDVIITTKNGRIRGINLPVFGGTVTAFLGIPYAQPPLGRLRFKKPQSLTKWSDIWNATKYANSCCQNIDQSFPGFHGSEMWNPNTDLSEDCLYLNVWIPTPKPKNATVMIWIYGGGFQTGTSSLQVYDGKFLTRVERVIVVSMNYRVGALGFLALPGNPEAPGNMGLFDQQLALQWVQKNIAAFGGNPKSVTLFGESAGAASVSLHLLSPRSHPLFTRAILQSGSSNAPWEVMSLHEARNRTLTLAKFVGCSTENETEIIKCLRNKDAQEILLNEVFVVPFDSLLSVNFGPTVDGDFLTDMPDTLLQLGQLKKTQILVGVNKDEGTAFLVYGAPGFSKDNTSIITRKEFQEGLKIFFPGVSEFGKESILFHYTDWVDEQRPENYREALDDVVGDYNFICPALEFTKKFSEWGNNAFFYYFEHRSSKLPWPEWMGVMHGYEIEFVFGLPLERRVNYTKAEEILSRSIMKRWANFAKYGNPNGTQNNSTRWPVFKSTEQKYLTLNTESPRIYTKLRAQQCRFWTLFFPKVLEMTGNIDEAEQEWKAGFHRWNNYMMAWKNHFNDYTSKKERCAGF
# strict inequality: Ki < 700 nM yields t, everything else yields f

Below, 3 molecules whose answers are already recorded.
>  <line-notation>
COc1cccc(-n2c(-c3cc4ccccc4oc3=O)n[nH]c2=S)c1

>  <assigned-label>
f

$$$$
>  <line-notation>
O=c1oc2ccccc2cc1-c1n[nH]c(=S)n1-c1ccccc1Cl

>  <assigned-label>
f

$$$$
>  <line-notation>
Cc1ccc(Nc2nnc(-c3cc4ccccc4oc3=O)s2)cc1

>  <assigned-label>
t

$$$$

State whether 700 nM exceeds Ki recorded for O=c1oc2ccccc2cc1-c1n[nH]c(=S)n1-c1cccc(Cl)c1 .
f

Record COc1ccccc1Nc1nnc(-c2cc3ccccc3oc2=O)s1 : is its Ki strictly below 700 nM?
f

Please state whether Ki is below 700 nM for O=c1oc2ccccc2cc1-c1nnc(Nc2ccccc2Cl)s1
f

Threshold test, Ki < 700 nM: Cc1cccc(Nc2nnc(-c3cc4ccccc4oc3=O)s2)c1
t

Given O=c1oc2ccccc2cc1-c1n[nH]c(=S)n1-c1ccc(Cl)cc1 , is recorded Ki strictly lower than 700 nM?
t

Consider the molecule O=c1oc2ccccc2cc1-c1nnc(Nc2ccc(Cl)cc2)s1 . Is its Ki strictly less than 700 nM?
t

Would you kindly verify if Ki of O=c1oc2ccccc2cc1-c1nnc(Nc2cccc(Cl)c2)s1 is strictly less than 700 nM?
f

Check if Ki falls below 700 nM for Cc1cccc(-n2c(-c3cc4ccccc4oc3=O)n[nH]c2=S)c1 .
f

Problem: For the molecule Cc1ccc(-n2c(-c3cc4ccccc4oc3=O)n[nH]c2=S)cc1 , is Ki under 700 nM?
t

hey, is Ki for COc1cccc(Nc2nnc(-c3cc4ccccc4oc3=O)s2)c1 lower than 700 nM or not?
f

----------
molecular target: rabbit AChE (rAChE), isolated from rabbit brain (Oryctolagus cuniculus); construct: AChE was isolated from rabbit brain; from tissue; host or cells: rabbit brain; assay: biochemical; conditions: mean ± SEM of three experiments; Ki calculated from IC50; substrate ATCI; read-out: rAChE Ki ± SEM
Sequence (Q29499 2-584): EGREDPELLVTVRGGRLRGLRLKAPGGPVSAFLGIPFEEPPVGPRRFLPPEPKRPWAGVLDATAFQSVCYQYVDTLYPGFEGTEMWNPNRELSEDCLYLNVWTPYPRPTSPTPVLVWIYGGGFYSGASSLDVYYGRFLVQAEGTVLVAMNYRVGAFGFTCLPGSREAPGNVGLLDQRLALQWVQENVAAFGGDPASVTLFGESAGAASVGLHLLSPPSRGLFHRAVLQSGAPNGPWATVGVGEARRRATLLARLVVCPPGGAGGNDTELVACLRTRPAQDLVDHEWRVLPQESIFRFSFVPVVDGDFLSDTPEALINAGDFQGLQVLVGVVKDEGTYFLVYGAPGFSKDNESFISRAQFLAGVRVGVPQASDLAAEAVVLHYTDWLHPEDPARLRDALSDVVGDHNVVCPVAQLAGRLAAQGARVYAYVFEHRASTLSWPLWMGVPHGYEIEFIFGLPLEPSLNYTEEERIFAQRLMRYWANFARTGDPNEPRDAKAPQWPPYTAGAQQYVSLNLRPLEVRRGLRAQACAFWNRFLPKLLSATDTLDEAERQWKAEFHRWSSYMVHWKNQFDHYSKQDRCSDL
value-type: pKi
Numbers only, as −log10 of the molar value.

Give measured pKi for every item shown.
1. O=c1oc2ccccc2cc1-c1nnc(Nc2ccccc2Cl)s1
2. COc1ccccc1Nc1nnc(-c2cc3ccccc3oc2=O)s1
3. O=c1oc2ccccc2cc1-c1n[nH]c(=S)n1-c1ccccc1Cl
4. Cc1ccc(-n2c(-c3cc4ccccc4oc3=O)n[nH]c2=S)cc1
5. O=c1oc2ccccc2cc1-c1nnc(Nc2cccc(Cl)c2)s1
6. COc1cccc(Nc2nnc(-c3cc4ccccc4oc3=O)s2)c1
7. O=c1oc2ccccc2cc1-c1n[nH]c(=S)n1-c1cccc(Cl)c1
8. COc1cccc(-n2c(-c3cc4ccccc4oc3=O)n[nH]c2=S)c1

7.51
7.09
6.33
7.41
7.55
7.68
6.22
7.34

Fill in pKi for each of the 6 molecules listed.
1. Cc1ccc(Nc2nnc(-c3cc4ccccc4oc3=O)s2)cc1
2. Cc1cccc(-n2c(-c3cc4ccccc4oc3=O)n[nH]c2=S)c1
3. O=c1oc2ccccc2cc1-c1nnc(Nc2ccc(Cl)cc2)s1
4. COc1ccccc1-n1c(-c2cc3ccccc3oc2=O)n[nH]c1=S
5. Cc1cccc(Nc2nnc(-c3cc4ccccc4oc3=O)s2)c1
6. O=c1oc2ccccc2cc1-c1n[nH]c(=S)n1-c1ccc(Cl)cc1

1. 6.25
2. 7.09
3. 6.62
4. 7.21
5. 7.77
6. 7.89

----------
target: BChE from horse serum (hBChE) (Equus caballus, UniProt P81908); construct: butyrylcholinesterase (BChE) (EC 3.1.1.8, from horse serum); purchased Sigma-Aldrich (Steinheim, Germany); host or cells: horse serum (natural source); assay: biochemical; format: biochemical; conditions: horse serum BChE; mean ± SEM of three experiments; Ki calculated from IC50; substrate BTCCl; read-out: hBChE Ki ± SEM
Sequence (P81908 whole entry): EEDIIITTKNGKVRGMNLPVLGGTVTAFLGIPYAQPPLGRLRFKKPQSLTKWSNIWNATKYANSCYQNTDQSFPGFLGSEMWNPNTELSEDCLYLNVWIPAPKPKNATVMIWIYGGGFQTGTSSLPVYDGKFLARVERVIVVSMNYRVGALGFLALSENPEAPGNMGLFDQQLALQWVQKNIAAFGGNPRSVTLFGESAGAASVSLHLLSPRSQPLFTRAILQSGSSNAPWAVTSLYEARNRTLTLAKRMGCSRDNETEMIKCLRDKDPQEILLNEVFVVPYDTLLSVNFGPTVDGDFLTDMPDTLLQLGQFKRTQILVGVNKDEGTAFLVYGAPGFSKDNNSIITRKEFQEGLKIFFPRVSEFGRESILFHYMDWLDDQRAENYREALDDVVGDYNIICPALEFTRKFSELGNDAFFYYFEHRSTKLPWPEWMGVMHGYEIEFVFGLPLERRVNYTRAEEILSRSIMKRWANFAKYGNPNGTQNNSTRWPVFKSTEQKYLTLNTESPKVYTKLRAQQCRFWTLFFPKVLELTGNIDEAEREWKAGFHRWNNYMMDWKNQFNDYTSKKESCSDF
value-type: pKi
Numbers only, as −log10 of the molar value.

>  <compound>
O=c1oc2ccccc2cc1-c1nnc(Nc2ccc(Cl)cc2)s1 [Compound 4c]

>  <pKi>
6.38

$$$$
>  <compound>
O=c1oc2ccccc2cc1-c1n[nH]c(=S)n1-c1ccccc1Cl [Compound 3a]

>  <pKi>
6.72

$$$$
>  <compound>
COc1cccc(Nc2nnc(-c3cc4ccccc4oc3=O)s2)c1 [Compound 4g]

>  <pKi>
6.47

$$$$
>  <compound>
O=c1oc2ccccc2cc1-c1n[nH]c(=S)n1-c1cccc(Cl)c1 [Compound 3b]

>  <pKi>
7.44

$$$$

Now for another entry.
Tell me its pKi given COc1ccccc1-n1c(-c2cc3ccccc3oc2=O)n[nH]c1=S [Compound 3f] as the entry.
6.55

----------
target: AChE from electrophorus electricus (EeAChE) (Electrophorus electricus); construct: Acetylcholinesterase (AChE) (EC 3.1.1.7, type VI-S from Electric Eel); purchased Sigma-Aldrich (Steinheim, Germany) type VI-S; host or cells: electric eel (natural source); assay: biochemical
value-type: Ki (µM)
Numbers only, in µM.

Please supply the value of reported Ki for the item CN(C)C(=O)Oc1cccc([N+](C)(C)C)c1 [Neostigmine, neostigmine methylsulfate, reference compound]
0.056

----------
target: BChE from horse serum (hBChE) (Equus caballus); construct: butyrylcholinesterase (BChE) (EC 3.1.1.8, from horse serum); purchased Sigma-Aldrich (Steinheim, Germany); host or cells: horse serum (natural source); assay: biochemical; type: biochemical
value-type: pKi
Numbers only, as −log10 of the molar value.

Look up and report pKi, with BChE from horse serum (hBChE) (Equus caballus) as system, for CN(C)C(=O)Oc1cccc([N+](C)(C)C)c1 [Neostigmine, neostigmine methylsulfate, reference compound]
7.22

----------
molecular target: BChE from horse serum (hBChE) (Equus caballus, UniProt P81908); construct: butyrylcholinesterase (BChE) (EC 3.1.1.8, from horse serum); purchased Sigma-Aldrich (Steinheim, Germany); host or cells: horse serum (natural source); assay: biochemical; format: biochemical; conditions: horse serum BChE; mean ± SEM of three experiments; Ki calculated from IC50; substrate BTCCl; read-out: hBChE Ki ± SEM
Exercise: state measured pKi for each of the compounds provided.
Give bare numbers, as −log10 of the molar value.

Below, each entry is followed by its recorded pKi result.
>  <line-notation>
Cc1cccc(-n2c(-c3cc4ccccc4oc3=O)n[nH]c2=S)c1

>  <pKi>
6.74

$$$$
>  <line-notation>
COc1ccccc1Nc1nnc(-c2cc3ccccc3oc2=O)s1

>  <pKi>
6.64

$$$$
>  <line-notation>
O=c1oc2ccccc2cc1-c1nnc(Nc2cccc(Cl)c2)s1

>  <pKi>
6.27

$$$$

Please go through the list and note pKi for each compound.
1. O=c1oc2ccccc2cc1-c1n[nH]c(=S)n1-c1ccc(Cl)cc1
2. Cc1ccc(-n2c(-c3cc4ccccc4oc3=O)n[nH]c2=S)cc1

5.87
6.89

Need pKi for each of these compounds.
1. O=c1oc2ccccc2cc1-c1nnc(Nc2ccccc2Cl)s1
2. Cc1cccc(Nc2nnc(-c3cc4ccccc4oc3=O)s2)c1
3. Cc1ccc(Nc2nnc(-c3cc4ccccc4oc3=O)s2)cc1
4. COc1cccc(-n2c(-c3cc4ccccc4oc3=O)n[nH]c2=S)c1

7.00
6.18
6.55
5.12

These entries and their values trace back to paper PMC3431135.
